- system tested: recombinant purified human IL-12 p70 (human) (UniProt P29459)
- Sequence (chain, as listed by the source, form in doubt, chain 1 of 2): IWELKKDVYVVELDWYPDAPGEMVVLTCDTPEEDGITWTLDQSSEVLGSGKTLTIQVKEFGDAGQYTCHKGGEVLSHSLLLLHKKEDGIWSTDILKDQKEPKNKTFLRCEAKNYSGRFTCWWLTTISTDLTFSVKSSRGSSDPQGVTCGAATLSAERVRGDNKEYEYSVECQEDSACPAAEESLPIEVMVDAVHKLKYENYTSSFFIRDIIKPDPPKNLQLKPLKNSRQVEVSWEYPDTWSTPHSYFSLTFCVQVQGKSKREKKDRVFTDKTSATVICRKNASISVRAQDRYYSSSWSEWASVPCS
- Sequence (P29459 23-219, form in doubt, chain 2 of 2): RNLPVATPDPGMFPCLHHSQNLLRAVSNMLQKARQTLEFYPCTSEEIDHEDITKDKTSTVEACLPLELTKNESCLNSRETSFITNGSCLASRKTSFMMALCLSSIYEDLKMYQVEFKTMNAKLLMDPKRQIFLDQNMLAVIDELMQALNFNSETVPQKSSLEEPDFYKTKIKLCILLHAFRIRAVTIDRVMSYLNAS
- assay procedure: SPR (Biacore) per Example 1.1.B; antigen not restated, taken as human IL-12 p70
Recorded log10 of koff by entry
property measured: log10 of koff (log10 of the value in s⁻¹)

binder="8E1.4 (antibody, IgG1, V domains shown) VH: EVQLVESGGGLVQPGGSLRLSCAASGFTFSDYGMVWVRQAPGKGLEWVASISSGSSNIYYADTVKGRFTISRDNAKNTLYLQMNSLRAEDTAVYYCARNPYWGQGTLVTVSS VL: DIQMTQSPSSLSASVGDRVTITCKASQNVGTNVAWYQQKPGKAPKGLIYSASHRYSGVPSRFSGSGSGTDFTLTISSLQPEDFATYYCQQYNSYPLTFGGGTKVEIKR" reported_value=-3.00
binder="1A6.12 (antibody, IgG1, V domains shown) VH: EVTLRESGPGLVKPTQTLTLTCTLYGFSLSTSGMGVSWIRQPPGKGLEWLAHIWWDGDNYYNPSLKSQLTISKDTSKNQVVLKLTSVDPVDTATYYCARRTRVNYAMDYWGQGTLVTVSS VL: DIQMTQSPSSLSASVGDRVTITCKASQSVSNDVAWFQQKPGKAPKLLIYYASNRYTGVPDRFSGSGYGTDFTFTISSLQPEDIATYYCQQDYNSPWTFGGGTKVEIKR" reported_value=-3.52
binder="8E1.5 (antibody, IgG1, V domains shown) VH: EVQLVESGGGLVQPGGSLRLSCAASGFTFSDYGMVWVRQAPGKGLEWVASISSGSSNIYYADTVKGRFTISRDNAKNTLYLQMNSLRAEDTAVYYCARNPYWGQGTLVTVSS VL: DIQMTQSPSSLSASVGDRVTITCKASQNVGTNVAWYQQKPGKAPKGLIYSASHRYSGVPDRFSGSGSGTDFTLTISSLQPEDFATYYCQQYNSYPLTFGGGTKVEIKR" reported_value=-2.91
binder="1A6.10 (antibody, V domains shown) VH: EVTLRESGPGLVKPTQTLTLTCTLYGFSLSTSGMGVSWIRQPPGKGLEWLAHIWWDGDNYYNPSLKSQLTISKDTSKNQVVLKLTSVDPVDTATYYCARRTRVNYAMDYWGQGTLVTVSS VL: DIQMTQSPSSLSASVGDRVTITCKASQSVSNDVAWYQQKPGKAPKLLIYYASNRYTGVPDRFSGSGYGTDFTFTISSLQPEDIATYYCQQDYNSPWTFGGGTKVEIKR" reported_value=-5.12
binder="8E1.6 (antibody, V domains shown) VH: EVQLVESGGGLVQPGGSLRLSCAASGFTFSDYGMVWVRQAPGKGLEWVASISSGSSNIYYADTVKGRFTISRDDAKNTLYLQMNSLRAEDTAVYYCARNPYWGQGTLVTVSS VL: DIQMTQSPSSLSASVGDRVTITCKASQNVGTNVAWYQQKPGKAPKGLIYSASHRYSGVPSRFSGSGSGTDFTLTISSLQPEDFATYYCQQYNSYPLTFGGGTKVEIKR" reported_value=-4.10
